- tgt: HLA-A*66:01
- protocol details: IEDB peptide-MHC binding, purified MHC/competitive/fluorescence; filed as Kd, often an IC50 or EC50 that approximates it; bounds were set here for any values at or beyond the usual limits of such assays
- test conditions: source organism: Vibrio vulnificus CMCP6
quantity kind: Kd

Exercise: What measured Kd goes with `KQIVIINPM` ?
Solution: ≥ 5 µM

====

- tgt: HLA-A*24:03
- protocol details: IEDB peptide-MHC binding, purified MHC/direct/fluorescence; filed as Kd, often an IC50 or EC50 that approximates it; bounds were set here for any values at or beyond the usual limits of such assays
- test conditions: source organism: Zaire ebolavirus
pKd: −log10 of the molar value.
quantity kind: pKd

Some solved entries appear below for comparison.
sequence string: EAEKQLQQY
tgt: HLA-A*24:03
pKd: ≤ 4.70

sequence string: KLINTLFHA
tgt: HLA-A*24:03
pKd: ≤ 4.70

Alright, here's another sequence for you.
Exercise: Missing value: pKd, HLA-A*24:03, entry `FLILPQAKK` . Fill in?
Solution: ≤ 4.70

====

- tgt: HLA-B*07:02
- protocol details: IEDB peptide-MHC binding, purified MHC/competitive/radioactivity; filed as Kd, often an IC50 or EC50 that approximates it; bounds were set here for any values at or beyond the usual limits of such assays
- test conditions: source organism: Mammarenavirus machupoense
quantity kind: pKd
Conceptually, pKd converts a concentration in mol/L into minus its log10.

Exercise: Recorded pKd of `TPNQPSAEF` , please.
Solution: 7.12

====

- tgt: HLA-B*44:02
- protocol details: IEDB peptide-MHC binding, purified MHC/competitive/radioactivity; filed as Kd, often an IC50 or EC50 that approximates it; bounds were set here for any values at or beyond the usual limits of such assays
- test conditions: source organism: Mammarenavirus lassaense
quantity kind: Kd

Consider the reported Kd for these sequences:
sequence string: YDQMKCKSL
tgt: HLA-B*44:02
quantity kind: Kd
observed: ≥ 76.2 µM

sequence string: REPAGLGSM
tgt: HLA-B*44:02
quantity kind: Kd
observed: ≥ 33.5 µM

Exercise: Given the entry `REAYCQEFSL` , report its measured Kd.
Solution: 1.06 µM

====

- tgt: HLA-A*01:01
- protocol details: IEDB peptide-MHC binding, purified MHC/competitive/fluorescence; filed as Kd, often an IC50 or EC50 that approximates it; bounds were set here for any values at or beyond the usual limits of such assays
- test conditions: source organism: Escherichia coli str. K-12 substr. MG1655
quantity kind: Kd (nM)
Numbers only; they are read as nM.

Exercise: I would be grateful if you could share the reported Kd for `RINEGWPAY` .
Solution: 481

====

- tgt: HLA-A*69:01
- protocol details: IEDB peptide-MHC binding, purified MHC/direct/fluorescence; filed as Kd, often an IC50 or EC50 that approximates it; bounds were set here for any values at or beyond the usual limits of such assays
- test conditions: source organism: Brucella abortus
pKd: −log10 of the molar value.
quantity kind: pKd

Exercise: Endpoint output: pKd of `AENGWGFYF` . Value?
Solution: ≤ 4.70

====

- tgt: HLA-A*26:01
- protocol details: IEDB peptide-MHC binding, purified MHC/competitive/radioactivity; filed as Kd, often an IC50 or EC50 that approximates it; bounds were set here for any values at or beyond the usual limits of such assays
- test conditions: source organism: Lassa virus GA391
quantity kind: Kd

Exercise: Recorded Kd for `YCNYSRYWYL` , please?
Solution: ≥ 69.7 µM
